test system: IGROV1 ovarian; experiment: NCI tumour cell line growth inhibition, 48 h

{"compound": "CC1=C2C(O)C(C(C)C(=O)N(C)C)CCC2(C)C=CC1=O (stereo not given)", "TGI": "> 100 µM"}
{"compound": "COc1cc(C=O)c(-c2c(C=O)ccc3c2OCO3)c(OC)c1OC", "TGI": "> 100 µM"}
{"compound": "O=C1C=C(C2OC(CO)C(O)C2O)C(=O)N1 (stereo not given)", "TGI": "> 100 µM"}
{"compound": "CNC(=O)OCc1c(COC(=O)NC)c(-c2ccc(-c3ccccc3)cc2)n(C)c1C", "TGI": "12 µM"}
{"compound": "CCCOC(=O)N[C@H]1CCc2c(Cl)c(OC)c(OC)c(OC)c2-c2ccc(SC)c(=O)cc21", "TGI": "> 65.6 µM"}
{"compound": "COc1ccc2c(c1)/C(=C\\c1c(Cl)[nH]c3cc(C)c(OC)cc13)C(=O)N2", "TGI": "5.3 µM"}
{"compound": "O=C(O)CO[C@@]12C#C/C=C\\C#C[C@@H]3N(C(=O)Oc4ccccc4)c4ccccc4[C@]14O[C@@]34CCC2", "TGI": "> 100 µM"}
{"compound": "Cc1ccc(C(=O)N/N=C(\\N=Nc2cccc([N+](=O)[O-])c2)c2ccc(N(CCC#N)CCC#N)cc2C)cc1", "TGI": "> 100 µM"}
{"compound": "NC(CSC(c1ccccc1)(c1ccccc1)c1ccccc1)C(=O)NCC(=O)O (stereo not given)", "TGI": "> 100 µM"}
{"compound": "CCOC(=O)/C=C(\\C(=O)OCC)n1cc(C)c(=O)n(Cc2cn(CCCCOC(C)=O)nn2)c1=O", "TGI": "27.5 µM"}

====

Each entry below carries its reported TGI.
test system: MALME-3M melanoma; assay: NCI tumour cell line growth inhibition, 48 h

{"molecule": "C/C(=N\\NS(=O)(=O)c1ccc(C)cc1)c1ccccn1", "target": "MALME-3M melanoma", "endpoint_unit": "µM", "value_operator": ">", "TGI": 100}
{"molecule": "COC(=O)c1csc([C@@H](OC(=O)[C@H](C)[C@H](CCCC(C)(Cl)Cl)OC(=O)c2csc([C@H](O)CO)n2)C(C)C)n1", "target": "MALME-3M melanoma", "endpoint_unit": "µM", "value_operator": "=", "TGI": 34.3}
{"molecule": "CC(C)(C)C1CCC(=O)/C(=C/CC2CC(=O)N(c3ccccc3)C(=O)C2)C1 (stereo not given)", "target": "MALME-3M melanoma", "endpoint_unit": "µM", "value_operator": "=", "TGI": 36.7}
{"molecule": "CCN1C(=O)c2ccc3c4c(ccc(c24)C1=O)C(=O)N(CCCNCc1ccccc1OC)C3=O", "target": "MALME-3M melanoma", "endpoint_unit": "µM", "value_operator": "=", "TGI": 0.391}
{"molecule": "NCCCNCCS", "target": "MALME-3M melanoma", "endpoint_unit": "µM", "value_operator": ">", "TGI": 100}

====

tested on: ACHN renal; experiment: NCI tumour cell line growth inhibition, 48 h
List of TGI values.
readout: TGI

{"compound": "Nc1ncnc2c1ncn2C1C=C(CO)C(O)C1O (stereo unspecified)", "target": "ACHN renal", "readout_value": "66.9 µM"}
{"compound": "CCC1=CCN(c2cc(C)ccn2)OC1c1ccc(OC)cc1 (stereo unspecified)", "target": "ACHN renal", "readout_value": "> 100 µM"}
{"compound": "O=NNc1ccc2ccccc2n1", "target": "ACHN renal", "readout_value": "> 100 µM"}
{"compound": "COC(=O)[C@@H]1C[C@H]2OC(=O)CC[C@]2(C)O[C@H]1[C@H]1O[C@@](C)(O)CCC[C@H]1C", "target": "ACHN renal", "readout_value": "> 50 µM"}
{"compound": "N#C[S-].[La+3].c1cnc2c(c1)ccc1cccnc12.c1cnc2c(c1)ccc1cccnc12.c1cnc2c(c1)ccc1cccnc12", "target": "ACHN renal", "readout_value": "12.9 µM"}
{"compound": "O=C(Oc1ccc[nH]c1=O)c1cc([N+](=O)[O-])cc([N+](=O)[O-])c1", "target": "ACHN renal", "readout_value": "> 100 µM"}
{"compound": "C=CC[P@]1(=O)O[C@H](c2ccccc2)[C@H](C)N1C", "target": "ACHN renal", "readout_value": "> 100 µM"}
{"compound": "CCN1CCCc2cc3c(C(F)(F)F)cc(=O)oc3cc21", "target": "ACHN renal", "readout_value": "> 100 µM"}
{"compound": "CCOP(=Nc1ccc(N(C)C)cc1)(OCC)OCC", "target": "ACHN renal", "readout_value": "> 100 µM"}
{"compound": "Cc1ccc(S(=O)(=O)N/N=C2\\CCCCC23CCC(=O)NC3)cc1 (stereo unspecified)", "target": "ACHN renal", "readout_value": "> 100 µM"}
{"compound": "COc1ccc2nc(N/N=C/c3sccc3C)cc(C)c2c1", "target": "ACHN renal", "readout_value": "56.2 µM"}
